- Tested on: LXFL 529 NSCLC
- protocol-details: NCI tumour cell line growth inhibition, 48 h
value-kind: TGI

// below: answered compounds
CCN(CC)C(c1ccc(N(C)C)cc1)C(c1ccc(N(C)C)cc1)N(CC)CC (stereo not given) ... > 73 µM
COc1ccc2c(c1)C(=O)Cc1ccccc1CC2 ... > 100 µM
C[C@@H]1OC(=O)N2CCCC(=C3SCCCS3)C12 (stereo not given in full) ... > 100 µM
CC(SC(=S)N1CCOCC1)c1cc2oc(=O)n(C)c2cc1Cl (stereo not given) ... > 100 µM

Query :: # lookup: TGI of "CCOCC(=O)N[C@H]1CCc2cc(OC)c(OC)c(OC)c2-c2ccc(OC)c(=O)cc21"
Result :: > 100 µM

Query :: Item: "O=C1NC(=O)C(CCC(=O)c2ccc3ccccc3c2)C(=O)N1"
Result :: > 100 µM
